System: MOLT-4 cells
Experiment: MOLT-4 cell viability, MTT assay
Assay type: cell-based
Conditions: Homo sapiens, MOLT-4, 48 h, 48 h exposure
MEASURE_NAME: IC50 (nM)

Cc1cc(N(C)c2nc(C(=O)O)c(CCCOc3ccc(C#CCO)cc3F)s2)nnc1Nc1nc2ccccc2s1	12.6

1: COCCCN(c1cc(C)c(Nc2nc3ccccc3s2)nn1)c1nc(C(=O)O)c(CCCOc2ccccc2)s1
2: CNCC#Cc1ccc(OCCCc2sc(N(CCCCCCN(C)C)c3cc(C)c(Nc4nc5ccccc5s4)nn3)nc2C(=O)O)c(F)c1
[ask] Among 1 and 2 , whose measured IC50 is the smaller figure? Mark your selection by writing its label.
[reply] 2
(2: 25.9 nM, 1: 236 nM)

* * *

Target: Bcl-xL protein (Homo sapiens, UniProt Q07817, N197C)
Construct: (2-197)[N197C]; His-His (two His8 stretches joined by a Gly/Ala/Ser/Thr linker)
Sequence (Q07817 2-197 N197C): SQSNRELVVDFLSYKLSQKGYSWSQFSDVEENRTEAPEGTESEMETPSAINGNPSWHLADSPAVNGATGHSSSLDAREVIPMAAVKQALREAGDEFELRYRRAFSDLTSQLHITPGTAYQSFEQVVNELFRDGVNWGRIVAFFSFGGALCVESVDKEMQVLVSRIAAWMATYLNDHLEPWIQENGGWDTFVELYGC
Assay: Fluorescence quenching assay (PUMA peptide displacement)
Details: 1 nM protein, 400 nM peptide, 2 hours at 23° C.; KI determined from IC50
MEASURE_NAME: Ki (pM)

Cc1cc(N(CCCCCN)c2nc(C(=O)O)c(CCCOc3ccc(C#CCN(C)C)cc3F)s2)nnc1Nc1nc2ccccc2s1	2.8
CNCC#Cc1ccc(OCCCc2sc(N(CC[N+](C)(C)C)c3cc(C)c(Nc4nc5ccccc5s4)nn3)nc2C(=O)[O-])c(F)c1	1.9
Cc1cc(N(C)c2ccc(-c3cnn(CC45CC6(C)CC(C)(C4)CC(OCCNCCC(=O)O)(C6)C5)c3C)c(C(=O)O)n2)nnc1Nc1nc2ccccc2s1	3.3

A: Cc1cc(N(C)c2nc(C(=O)O)c(CCCOc3ccc(C#CCN(C)C)cc3F)s2)nnc1Nc1nc2ccccc2s1
B: Cc1cc(N(CCCP(=O)(O)O)c2nc(C(=O)O)c(CCCOc3ccc(C#CCN(C)C)cc3F)s2)nnc1Nc1nc2ccccc2s1
C: CNCC#Cc1ccc(OCCCc2sc(N(CCCCC[N+](C)(C)CCO)c3cc(C)c(Nc4nc5ccccc5s4)nn3)nc2C(=O)[O-])c(F)c1
[ask] Put the items in order so that reported Ki rises from first to last. Provide the labels, sequenced as the question asks.
[reply] C, B, A

* * *

Molecular target: BCLXL (Homo sapiens, UniProt Q07817, V10N/V9A)
Sequence (Q07817 with tags, fused parts or gaps V9A/V10N): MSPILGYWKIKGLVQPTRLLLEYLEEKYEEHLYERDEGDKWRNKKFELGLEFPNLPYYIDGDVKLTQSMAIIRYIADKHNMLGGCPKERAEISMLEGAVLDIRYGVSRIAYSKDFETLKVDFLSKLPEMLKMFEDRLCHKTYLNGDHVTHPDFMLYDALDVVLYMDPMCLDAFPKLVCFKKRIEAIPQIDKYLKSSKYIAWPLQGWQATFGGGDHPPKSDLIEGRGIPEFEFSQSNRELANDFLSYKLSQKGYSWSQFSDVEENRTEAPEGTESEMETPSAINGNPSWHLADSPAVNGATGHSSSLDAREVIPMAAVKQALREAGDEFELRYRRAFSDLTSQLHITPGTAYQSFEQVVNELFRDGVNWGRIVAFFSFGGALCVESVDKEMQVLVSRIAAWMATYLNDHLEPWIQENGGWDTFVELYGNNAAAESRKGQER
Test: AlphaLISA assay (BIM peptide displacement)
Conditions: 20 pM protein, 1 nM peptide
pIC50: −log10 of the molar value.
MEASURE_NAME: pIC50

COCC(O)CCCN(c1cc(C)c(Nc2nc3ccccc3s2)nn1)c1nc(C(=O)O)cs1 (stereo not shown) [Example 132]	8.11

1: Cc1cc(N(CC(O)CO)c2nc(C(=O)O)c(CCCOc3ccc(C#CCN(C)C)cc3F)s2)nnc1Nc1nc2ccccc2s1 (stereo not shown) [Example 122]
2: Cc1cc(N(CCCO)c2nc(C(=O)O)c(CCCOc3ccc(C#CCN(C)C)cc3F)s2)nnc1Nc1nc2ccccc2s1 [Example 126]
[ask] Kindly identify which of 1 and 2 has the larger recorded pIC50 value. Please identify the chosen entry by its label.
[reply] 1
(1: 11.01, 2: 10.64)

* * *

Molecular target: Bcl-xL protein (Homo sapiens, UniProt Q07817, N197C)
Construct: (2-197)[N197C]; His-His (two His8 stretches joined by a Gly/Ala/Ser/Thr linker)
Test: Fluorescence quenching assay (PUMA peptide displacement)
Conditions: 1 nM protein, 400 nM peptide, 2 hours at 23° C.; KI determined from IC50
pKi: −log10 of the molar value.
MEASURE_NAME: pKi

Examples from the recorded data:
CNCCN(C)CC#Cc1ccc(OCCCc2sc(N(C)c3cc(C)c(Nc4nc5ccccc5s4)nn3)nc2C(=O)O)c(F)c1	11.21
Cc1cc(N(CCCC(O)CN(C)CCN(C)C)c2nc(C(=O)O)c(CCCOc3ccc(C#CCN(C)C)cc3F)s2)nnc1Nc1nc2ccccc2s1 (stereo not shown)	11.77
CNCC#Cc1ccc(OCCCc2sc(N(CC(O)CO)c3cc(C)c(Nc4nc5ccccc5s4)nn3)nc2C(=O)O)c(F)c1 (stereo not shown)	11.18
Cc1cc(N(C)c2nc(C(=O)O)c(CCCOc3ccc(CCCN(C)C)cc3F)s2)nnc1Nc1nc2ccccc2s1	11.40
CNCC#Cc1ccc(OCCCc2sc(N(CCC(O)COC)c3cc(C)c(Nc4nc5ccccc5s4)nn3)nc2C(=O)O)c(F)c1 (stereo not shown)	11.96

1: Cc1cc(N(C)c2nc(C(=O)O)c(CCCOc3ccc(C#CC(C)N(C)C)cc3F)s2)nnc1Nc1nc2ccccc2s1 (stereo not shown)
2: Cc1cc(N(CCCCP(=O)(O)O)c2nc(C(=O)O)c(CCCOc3ccc(C#CCN(C)C)cc3F)s2)nnc1Nc1nc2ccccc2s1
[ask] Determine, for 1 and 2 , which has the greater value of pKi. Write down the label of the entry you select.
[reply] 1
(1: 11.64, 2: 11.11)

The values you see were collected from patent US12649733B2.
